target: human IgG; assay: Microscale Thermophoresis (MST) with IgG-FITC; format: binding; settings: E6_M2_T2; hIgG-FITC 25 nM, ligand from 695 nM 1:2 dilutions, PBS1x-0.05% (v/v) Tween-20 pH 7.4, 25 °C, n = 3; read-out: dissociation constant, KD
readout: Kd (nM)

1. C S GK LPPGW E E R KTRRFKLG R TYYYNHHILSKTS Q W EH PR G SSS GK LPPGW E E R KTRRFKLG R TYYYNHHILSKTS Q W EH PR G SS [Clone E6_M2_T2] :: 62

Where do the numbers come from? From paper PMC12647017.
